B1: ZBED2 (parent)
chain: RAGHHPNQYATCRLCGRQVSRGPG

Variants of: B1
experiment_notes: protein stability index of a GFP-peptide fusion (GPS, HEK-293T) (PSI 1-6); higher = more stable;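 further: lentivirally expressed fusions sorted by FACS into six bins by GFP to DsRed ratio, PSI derived from sequencing read proportions per bin multiplied by bin number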
test_conditions: c terminus: a fixed tail appended
recorded_metric: protein stability index
Just the number, please, no unit after it.

{"mutant_designation": "A2D", "protein stability index": 2.08}

// switching to the query variant
Looking up `Q18H` , I found its protein stability index recorded as 2.59

Just for reference, the supplement of paper PMC10567573 is where these values come from.
